Consider the following compounds and their measured TGI readings.
- assay.comment: Growth inhibition of human SKOV3 cells incubated for 48 hrs by sulforhodamine B assay
- Format: functional
- measurement.context: SK-OV-3, 48 h, read-out: pTGI (converted)

Below are worked cases with known answers.
C/C(=C\C(=O)O[C@H]1[C@@H]2[C@H](C)CC[C@H]2[C@]2(C)O[C@@]1(C(C)C)C[C@H]2NC(=O)CO)c1ccccc1 ... > 100 µM
CC(C)[C@@]12C[C@@H](NC(=O)CO)[C@@](C)(O1)[C@@H]1CC[C@@H](C)[C@H]1[C@@H]2OC(=O)/C=C/C1CCCCC1 ... > 44.7 µM
CC(C)[C@@]12C[C@@H](NC(=O)CO)[C@@](C)(O1)[C@@H]1CC[C@@H](C)[C@H]1[C@@H]2OC(=O)/C=C/c1ccccc1 ... > 50.1 µM

In the following, a different compound is considered.
Exercise: Item under review: `CC(C)[C@@]12C[C@@H](NC(=O)CO)[C@@](C)(O1)[C@@H]1CC[C@@H](C)[C@H]1[C@@H]2OC(=O)c1ccc2ccccc2c1` . Reported TGI?
Solution: 30.2 µM

----------
- Tested on: SR
- assay.comment: Growth inhibition of human SR cells incubated for 48 hrs by sulforhodamine B assay
- Type: functional
measured.attribute: LC50

Worked cases, LC50 given:
CC(C)[C@@]12C[C@@H](NC(=O)CO)[C@@](C)(O1)[C@@H]1CC[C@@H](C)[C@H]1[C@@H]2OC(=O)/C=C/C1CCCCC1 ... > 44.7 µM
C/C(=C\C(=O)O[C@H]1[C@@H]2[C@H](C)CC[C@H]2[C@]2(C)O[C@@]1(C(C)C)C[C@H]2NC(=O)CO)c1ccccc1 ... > 100 µM
CC(C)[C@@]12C[C@@H](NC(=O)CO)[C@@](C)(O1)[C@@H]1CC[C@@H](C)[C@H]1[C@@H]2OC(=O)/C=C/c1ccccc1 ... > 50.1 µM

Exercise: LC50 for `CC(C)[C@@]12C[C@@H](NC(=O)CO)[C@@](C)(O1)[C@@H]1CC[C@@H](C)[C@H]1[C@@H]2OC(=O)c1ccc2ccccc2c1` ?
Solution: 81.3 µM

----------
- System: NCI-H226
- assay.comment: Growth inhibition of human NCI-H226 cells assessed as cell growth at 10 uM incubated for 48 hrs by sulforhodamine B assay relative to control
- Format: functional
- measurement.context: NCI-H226, 48 h, read-out: Activity
Labelling field: enter 1 if recorded growth at 10 µM is less than 90%. Enter -1 if it equals or exceeds that cut-off.

CC(C)[C@@]12C[C@@H](NC(=O)CO)[C@@](C)(O1)[C@@H]1CC[C@@H](C)[C@H]1[C@@H]2OC(=O)/C=C/C1CCCCC1 ... -1

Attention now turns to another entry.
Exercise: In plain terms, does `CC(C)[C@@]12C[C@@H](NC(=O)CF)[C@@](C)(O1)[C@@H]1CC[C@@H](C)[C@H]1[C@@H]2OC(=O)/C=C/c1ccccc1` come in under 90% for growth at 10 µM?
Solution: 1

----------
Entries and their growth at 10 µM values follow.
- assay.comment: Growth inhibition of human SF539 cells assessed as cell growth at 10 uM incubated for 48 hrs by sulforhodamine B assay relative to control
- Type: functional
- measurement.context: SF-539, 48 h, read-out: Activity
Return type: number; implicit unit %.

CC(C)[C@@]12C[C@@H](NC(=O)CO)[C@@](C)(O1)[C@@H]1CC[C@@H](C)[C@H]1[C@@H]2OC(=O)c1ccc2ccccc2c1 ... 84.6
CC(C)[C@@]12C[C@@H](NC(=O)CF)[C@@](C)(O1)[C@@H]1CC[C@@H](C)[C@H]1[C@@H]2OC(=O)/C=C/c1ccccc1 ... 87.9
CC(C)[C@@]12C[C@@H](NC(=O)CO)[C@@](C)(O1)[C@@H]1CC[C@@H](C)[C@H]1[C@@H]2OC(=O)/C=C/c1ccccc1 ... 97.2

Exercise: Find the recorded growth at 10 µM belonging to `C/C(=C\C(=O)O[C@H]1[C@@H]2[C@H](C)CC[C@H]2[C@]2(C)O[C@@]1(C(C)C)C[C@H]2NC(=O)CO)c1ccccc1` and report it.
Solution: 91.2
